Each recorded value in this set is attributed to ChEMBL document CHEMBL1201862.

test system: SK-MEL-5; test: NCI tumour cell line growth inhibition, 48 h
The source made the active and inactive calls. No stated cut-off is given here; in the data, active = GI50 up to about 1.1 µM and inactive = higher.
I'd be grateful if you could share measured GI50 for these entries.

Exercise: Quickly give me recorded GI50 for COC1=CC(=O)C2[C@H]3Cc4ccccc4[C@H]3C2(C)C1=O (stereo partly specified)
Key: > 100 µM (inactive)

Exercise: Note down GI50 recorded for C=Nc1ccc([N+](=O)[O-])cc1
Key: > 100 µM (inactive)

Exercise: Give reported GI50 value for O=P12N(CCN1c1ccccc1)CCN2c1ccccc1
Key: > 100 µM (inactive)

Exercise: Provide one value: measured GI50 of c1ccc2c(c1)[n-]n1c3ccc4nonc4c3n[n+]21
Key: > 100 µM (inactive)

Exercise: Write down GI50 measured for item CC[N+]1(C)CCC(O)(c2ccc(Cl)c(Cl)c2)C(C(=O)c2ccc(Cl)c(Cl)c2)C1 (stereo unspecified)
Key: > 10 µM (inactive)

Exercise: Find the measured GI50 of CN(CCC(=O)O)C1=Nc2ccc(Cl)cc2C(c2ccccc2)=[N+]([O-])C1 and report it.
Key: > 100 µM (inactive)
